Measured values drawn from paper doi:10.1101/2024.03.05.583629 for this set.

Biological target: pT7_6His-AlfaTag-HOXD13 (human, UniProt P35453 263-343)
Sequence (P35453 263-343): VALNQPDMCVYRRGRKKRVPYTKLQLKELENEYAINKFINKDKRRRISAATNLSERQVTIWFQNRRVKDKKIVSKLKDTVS
Experiment: PADIT-seq
Details: dsDNA, one strand shown
Measure: binding signal (log2FC)

[[record]]
sequence_record = "CTCGAGGATATCAAGATCTGGCCTCGGCCTTTTAATAGGAACCTCTAGCTAGCCGACTCACTATAGGGATAATCGCCCTGAGCAAAGACC"
obs_value = 2.68

[[record]]
sequence_record = "CTCGAGGATATCAAGATCTGGCCTCGGCGACCCACGCGGAACCTCTAGCTAGCCGACTCACTATAGGGATAATCGCCCTGAGCAAAGACC"
obs_value = -1.05

[[record]]
sequence_record = "CTCGAGGATATCAAGATCTGGCCTCGGCATTTTACCCGGAACCTCTAGCTAGCCGACTCACTATAGGGATAATCGCCCTGAGCAAAGACC"
obs_value = -0.0737

[[record]]
sequence_record = "CTCGAGGATATCAAGATCTGGCCTCGGCCCTCTAAAAGGAACCTCTAGCTAGCCGACTCACTATAGGGATAATCGCCCTGAGCAAAGACC"
obs_value = 0.681


====

Biological target: pT7_6His-AlfaTag-ZIF268 (human, UniProt P18146 335-423)
Assay: PADIT-seq
Conditions: dsDNA, one strand shown
The threshold is 0.05 log2FC. Values of binding signal beneath it are tagged 1.0; values meeting or exceeding it are tagged 0.0.

[[record]]
sequence_record = "CTCGAGGATATCAAGATCTGGCCTCGGCGCGTGGAGTGGAACCTCTAGCTAGCCGACTCACTATAGGGATAATCGCCCTGAGCAAAGACC"
assayed_target = "pT7_6His-AlfaTag-ZIF268 (human, UniProt P18146 335-423)"
qualitative_label = 0.0

[[record]]
sequence_record = "CTCGAGGATATCAAGATCTGGCCTCGGCCGCGGTCGCGGAACCTCTAGCTAGCCGACTCACTATAGGGATAATCGCCCTGAGCAAAGACC"
assayed_target = "pT7_6His-AlfaTag-ZIF268 (human, UniProt P18146 335-423)"
qualitative_label = 1.0

[[record]]
sequence_record = "CTCGAGGATATCAAGATCTGGCCTCGGCGGATGGGCGGGAACCTCTAGCTAGCCGACTCACTATAGGGATAATCGCCCTGAGCAAAGACC"
assayed_target = "pT7_6His-AlfaTag-ZIF268 (human, UniProt P18146 335-423)"
qualitative_label = 0.0

[[record]]
sequence_record = "CTCGAGGATATCAAGATCTGGCCTCGGCCGCTTTCGCGGAACCTCTAGCTAGCCGACTCACTATAGGGATAATCGCCCTGAGCAAAGACC"
assayed_target = "pT7_6His-AlfaTag-ZIF268 (human, UniProt P18146 335-423)"
qualitative_label = 1.0

[[record]]
sequence_record = "CTCGAGGATATCAAGATCTGGCCTCGGCAACCCACGCGGAACCTCTAGCTAGCCGACTCACTATAGGGATAATCGCCCTGAGCAAAGACC"
assayed_target = "pT7_6His-AlfaTag-ZIF268 (human, UniProt P18146 335-423)"
qualitative_label = 0.0

[[record]]
sequence_record = "CTCGAGGATATCAAGATCTGGCCTCGGCGCGTGGACTGGAACCTCTAGCTAGCCGACTCACTATAGGGATAATCGCCCTGAGCAAAGACC"
assayed_target = "pT7_6His-AlfaTag-ZIF268 (human, UniProt P18146 335-423)"
qualitative_label = 1.0

[[record]]
sequence_record = "CTCGAGGATATCAAGATCTGGCCTCGGCCGCCCAAAAGGAACCTCTAGCTAGCCGACTCACTATAGGGATAATCGCCCTGAGCAAAGACC"
assayed_target = "pT7_6His-AlfaTag-ZIF268 (human, UniProt P18146 335-423)"
qualitative_label = 1.0

[[record]]
sequence_record = "CTCGAGGATATCAAGATCTGGCCTCGGCCGCCCACGCGGAACCTCTAGCTAGCCGACTCACTATAGGGATAATCGCCCTGAGCAAAGACC"
assayed_target = "pT7_6His-AlfaTag-ZIF268 (human, UniProt P18146 335-423)"
qualitative_label = 0.0

[[record]]
sequence_record = "CTCGAGGATATCAAGATCTGGCCTCGGCCCTTTAAAAGGAACCTCTAGCTAGCCGACTCACTATAGGGATAATCGCCCTGAGCAAAGACC"
assayed_target = "pT7_6His-AlfaTag-ZIF268 (human, UniProt P18146 335-423)"
qualitative_label = 0.0

[[record]]
sequence_record = "CTCGAGGATATCAAGATCTGGCCTCGGCAGTTTAAAAGGAACCTCTAGCTAGCCGACTCACTATAGGGATAATCGCCCTGAGCAAAGACC"
assayed_target = "pT7_6His-AlfaTag-ZIF268 (human, UniProt P18146 335-423)"
qualitative_label = 0.0

[[record]]
sequence_record = "CTCGAGGATATCAAGATCTGGCCTCGGCTTTTTAGAAGGAACCTCTAGCTAGCCGACTCACTATAGGGATAATCGCCCTGAGCAAAGACC"
assayed_target = "pT7_6His-AlfaTag-ZIF268 (human, UniProt P18146 335-423)"
qualitative_label = 0.0

[[record]]
sequence_record = "CTCGAGGATATCAAGATCTGGCCTCGGCCGCCTAAAAGGAACCTCTAGCTAGCCGACTCACTATAGGGATAATCGCCCTGAGCAAAGACC"
assayed_target = "pT7_6His-AlfaTag-ZIF268 (human, UniProt P18146 335-423)"
qualitative_label = 1.0

[[record]]
sequence_record = "CTCGAGGATATCAAGATCTGGCCTCGGCCACATAAAAGGAACCTCTAGCTAGCCGACTCACTATAGGGATAATCGCCCTGAGCAAAGACC"
assayed_target = "pT7_6His-AlfaTag-ZIF268 (human, UniProt P18146 335-423)"
qualitative_label = 0.0

[[record]]
sequence_record = "CTCGAGGATATCAAGATCTGGCCTCGGCTAGCTAAAAGGAACCTCTAGCTAGCCGACTCACTATAGGGATAATCGCCCTGAGCAAAGACC"
assayed_target = "pT7_6His-AlfaTag-ZIF268 (human, UniProt P18146 335-423)"
qualitative_label = 1.0


====

Biological target: pT7_6His-AlfaTag-HOXD13 (human, UniProt P35453 263-343)
Assay: PADIT-seq
Details: dsDNA, one strand shown
Measure: binding signal

[[record]]
sequence_record = "CTCGAGGATATCAAGATCTGGCCTCGGCCGCCAGCGCGGAACCTCTAGCTAGCCGACTCACTATAGGGATAATCGCCCTGAGCAAAGACC"
assayed_target = "pT7_6His-AlfaTag-HOXD13 (human, UniProt P35453 263-343)"
measure = "binding signal"
obs_value = "-0.898 log2FC"

[[record]]
sequence_record = "CTCGAGGATATCAAGATCTGGCCTCGGCTTTTTAATAGGAACCTCTAGCTAGCCGACTCACTATAGGGATAATCGCCCTGAGCAAAGACC"
assayed_target = "pT7_6His-AlfaTag-HOXD13 (human, UniProt P35453 263-343)"
measure = "binding signal"
obs_value = "2.75 log2FC"

[[record]]
sequence_record = "CTCGAGGATATCAAGATCTGGCCTCGGCCATTGGGCGGGAACCTCTAGCTAGCCGACTCACTATAGGGATAATCGCCCTGAGCAAAGACC"
assayed_target = "pT7_6His-AlfaTag-HOXD13 (human, UniProt P35453 263-343)"
measure = "binding signal"
obs_value = "-0.505 log2FC"

[[record]]
sequence_record = "CTCGAGGATATCAAGATCTGGCCTCGGCGTTTTATACGGAACCTCTAGCTAGCCGACTCACTATAGGGATAATCGCCCTGAGCAAAGACC"
assayed_target = "pT7_6His-AlfaTag-HOXD13 (human, UniProt P35453 263-343)"
measure = "binding signal"
obs_value = "2.62 log2FC"


====

Below, each entry is listed with its recorded binding signal.
Biological target: pT7_6His-AlfaTag-ZIF268 (human, UniProt P18146 335-423)
Assay: PADIT-seq
Settings: dsDNA, one strand shown
Measure: binding signal (log2FC)

[[record]]
sequence_record = "CTCGAGGATATCAAGATCTGGCCTCGGCACCGTAAAAGGAACCTCTAGCTAGCCGACTCACTATAGGGATAATCGCCCTGAGCAAAGACC"
obs_value = 0.0818

[[record]]
sequence_record = "CTCGAGGATATCAAGATCTGGCCTCGGCGACCCACGCGGAACCTCTAGCTAGCCGACTCACTATAGGGATAATCGCCCTGAGCAAAGACC"
obs_value = 0.214

[[record]]
sequence_record = "CTCGAGGATATCAAGATCTGGCCTCGGCGCGTGGCTAGGAACCTCTAGCTAGCCGACTCACTATAGGGATAATCGCCCTGAGCAAAGACC"
obs_value = 0.021

[[record]]
sequence_record = "CTCGAGGATATCAAGATCTGGCCTCGGCCGCCCACCCGGAACCTCTAGCTAGCCGACTCACTATAGGGATAATCGCCCTGAGCAAAGACC"
obs_value = 0.112

[[record]]
sequence_record = "CTCGAGGATATCAAGATCTGGCCTCGGCGCGGTGGCGGGAACCTCTAGCTAGCCGACTCACTATAGGGATAATCGCCCTGAGCAAAGACC"
obs_value = 0.175

[[record]]
sequence_record = "CTCGAGGATATCAAGATCTGGCCTCGGCGGGATAAAAGGAACCTCTAGCTAGCCGACTCACTATAGGGATAATCGCCCTGAGCAAAGACC"
obs_value = 0.0461

[[record]]
sequence_record = "CTCGAGGATATCAAGATCTGGCCTCGGCATACCACGCGGAACCTCTAGCTAGCCGACTCACTATAGGGATAATCGCCCTGAGCAAAGACC"
obs_value = 0.123

